Item-by-item account of PBM binding z-score
- Test system: VDR:RXRa (NR concentration 270 nM, RXRa partner concentration 90 nM)
- Procedure details: PBM binding z-score (relative to random genomic background probes); higher = stronger binding; sequences stand for … in GC…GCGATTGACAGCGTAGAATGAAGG
Endpoint label: PBM binding z-score

# Sequence record, Assay value
data = [
    ("CCAGACAGGTGATAAGGTAACTCAGCCTCGATTA", -0.000379),
    ("CCGAGTAAGTTATGGGGCATTCAGGCAACGGTGA", -0.346),
    ("CCAGACAGGTGCAAGGTAACTCAGTCTGGTACGC", -0.136),
    ("TCATATAGGTAAACAGGTGAAAGTTCGTAAGTTA", 1.98),
    ("TCTTGTAGATCAATAGAGGTTAGGAAAGTGCGCT", 1.05),
    ("TAATATAGGTAAATGCTAGGTGAAAGTCCGATCT", 0.36),
    ("CCTGCTAAGTCATGGTCAGCTAATCTACAGTATG", -0.252),
    ("CGAACGAGGGCATGAGTTGATATCAAATGCCGAT", 1.44),
    ("TATACAGGGTCAAAGCCCAGAGTACGAATGTCGA", 4.41),
    ("GTACCAAGGTGAATAGCTCGTTGATGAGTAGGCG", -0.223),
    ("GCGACTGGGGCATCAGCAGGTCACCATAACTTAA", 1.75),
    ("CCTATTAGTTGACCATACGGGCAACCGAAGCTCG", 0.598),
]

---

- Test system: PPARg:RXRa 30nM:10nM, anti-RXR (NR concentration 30 nM, RXRa partner concentration 10 nM)
- Procedure details: PBM binding z-score (relative to random genomic background probes); higher = stronger binding; sequences stand for … in GC…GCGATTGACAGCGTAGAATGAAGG
Label Not met if PBM binding z-score falls below 1; label Met in every other case.

# Sequence record, Group
records = [
    ("AGAATGAGGTTAAGATCTGGGAAACAGAATACAT", "Not met"),
    ("TCAATGAGGTTATAAGATCAGGGAACGTTGCAAA", "Met"),
    ("ATATGTAGGTTAGCTGGGGTGATTCAGACTAGGC", "Not met"),
    ("CGAACTAGGTCATTGACAGGTCAGTGAATAGTAA", "Met"),
    ("AGTCAAAGTTCATCTAGGTAACGTCAGATATGCT", "Met"),
    ("TTACGAAGGTGAGCTGAGGTCGTTGATCCAACTC", "Not met"),
]

---

- Test system: LXRb homodimer (NR concentration 270 nM)
- Procedure details: PBM binding z-score (relative to random genomic background probes); higher = stronger binding; sequences stand for … in GC…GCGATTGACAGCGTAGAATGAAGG
Parameter threshold = 0.5. Response is y when PBM binding z-score meets or exceeds it, else n.

# Sequence record, Subject of test, Group
records = [
    ("AATACAGGGTCATCGTAGGCCAGAATACGCACAG", "LXRb homodimer (NR concentration 270 nM)", "y"),
    ("AGTCAAAGTTCAGGACCAGGTAACGTAAAGCACG", "LXRb homodimer (NR concentration 270 nM)", "n"),
    ("CCTCTTAGTTGACCATAAGGGCAACCGAAGCTCG", "LXRb homodimer (NR concentration 270 nM)", "y"),
    ("ATTCAAAGTTCATCTAGGTAACGTAAGATATGCT", "LXRb homodimer (NR concentration 270 nM)", "y"),
    ("GCGACTGGGGCATCAGCAGGTTACAATAACTTAA", "LXRb homodimer (NR concentration 270 nM)", "n"),
    ("CGTCCAAGGTCATAGGATGTCAGTGAAGACAGAT", "LXRb homodimer (NR concentration 270 nM)", "y"),
]

---

- System: PXR:RXRa (NR concentration 270 nM, RXRa partner concentration 90 nM)
- Procedure details: PBM binding z-score (relative to random genomic background probes); higher = stronger binding; sequences stand for … in GC…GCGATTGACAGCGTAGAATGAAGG
Endpoint label: PBM binding z-score

# Sequence record, Assay value
measured = [
    ("TCATATAGGTAAACACGTGAAAGTCCGTAAGTTA", 0.722),
    ("TCTTCTAGATCAAGCAGGTTAAGAAAGCCTGAGT", 0.69),
    ("CAAACTAGGTCACAGAGGTAAAAGTCCGTGCGTA", 2.53),
    ("CTTTACGGGTCACTCCAGGTTATAGCATCGGAGT", 5.1),
    ("CGAACTAGGTCAGAACACGACAGTGAAGGATGAT", 0.221),
    ("TCGAGTAGCTTAGGGGCATTCAGAATGGCGTCGA", 0.0972),
    ("ATACCAATGTGATCGTGAGGTCGTTGATACTAAC", 2.06),
    ("ATGGAAAGGTCGACGAGGTGAGTATACACCGTTT", 2.96),
    ("TGAATGAGGTTACAAGATCAGGGAACGTTGCAAA", 0.754),
    ("ATATGTAGGTTAGCTGGGGCCATTCAGACTAGGC", 2.87),
    ("AGTCAAAGTTCACTAGGTAACGTTAGATTCAGCT", 3.95),
    ("TCGAGTAGGTTAGCAATGGGGCATTCAGCTTTCT", -0.264),
    ("ACTAGCAGGCCATGTTTGGGTCACTCAAACAAAG", 0.404),
    ("TAGCCTAGGTCATGTGGGCCAGTATAGTGTCGGC", 1.47),
    ("AGCATGAGGTTATTAAGATCAGGGAATTGCGGTC", 1.29),
    ("GATTGTAGATCAAGGTTAAGAAAGACTAAGCTAA", 0.443),
    ("CCTTACGGGTCACGAGGTTATAGCTCGACGAGCG", 4.94),
    ("TCAGACAGGGGAAGGTAACTCAGGTACGCAGTCG", 0.624),
    ("CATACAGGGTCAGCTAGGCCAGAGGAGGGACGGC", 2.15),
    ("AGACAAAGTTCATCTAGGTAACGTAAGATATGCT", 5.34),
    ("CCGACTGGTGCATAAGGTTACCATAAGCCAGCCC", 0.475),
    ("CCTAGCAGGCCAGGGTGACTCAAGCATTTCGCTT", -0.537),
    ("TCATATAGGTAATACAGGTGACAGTCGGCATCTA", 0.765),
    ("ATCGAAAGTTCGACGAGGTGAGTATACACCGTTT", 1.42),
    ("GCTTGTAGATCAAGGCTAAGAAAGACTAAGCTAA", -0.743),
    ("TCTCGGAGGACACGGAGGTCAGAGCTTTCCAGAG", 2.45),
    ("ATCTCTAGTTAACCAAGTTCAGTGAATGCCGAAC", 2.1),
    ("TCTCGGACGACACGAAAGGTCAGAGCTCGACATC", 3.8),
    ("GCTAGTTGGGCAGTAAAAGGTCACACACCGGTCG", 5.1),
    ("AGAATGAGGTTATACGTAGATCAGGGCAGAAAGT", 1.45),
    ("GCGACTGGGGCATCAACAGGTTACCATAACTTAA", 0.139),
    ("CCTTACGGGTCACTCCTGGTTATAGCATCGGAGT", 2.67),
    ("ACAACGAGGGCAATGAGTTGATAGCACGGGTGGC", 1.76),
    ("ACAGACAGGTGATGAAGGTAACTCAAGCTATCAT", -0.188),
    ("ACTAGCAGGCCAGGGGTCACTCAAGATTAGTCCG", 5.13),
    ("CAAACTATGTCAAAGGTCAAAGTCGAGCCAACCA", 5.93),
    ("AGAATTAGGTTAAGATCAGGGAAACAGAATACAT", 0.514),
    ("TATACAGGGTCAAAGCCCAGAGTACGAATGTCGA", 3.69),
    ("TCTATTAGTTGAAGGGTAACCGACGAGTCCGTTT", 1.03),
    ("ATCTCTAGGAAAGACTCAGTTCAGTGAAGAACGC", 0.737),
    ("CAGCCTAGGTCAGGGCCAGGATAGGAGGAACGTT", 0.262),
    ("CGTCAAACTTCAAGGTAACGTAACAGAAAGCAGC", 0.178),
    ("CGTCCAAGGTCATAGGAGGTCTGTGAAGACAGAT", 4.86),
    ("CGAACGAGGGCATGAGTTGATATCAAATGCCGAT", 0.636),
    ("CAAACTAGGTAACAGAGGTCAAAGTCCGTGCGTA", 6),
    ("GCATATAGGGAATACAAGGTGAAAGTCCGATTGT", 0.0196),
    ("GCTATTAGTTTAAAGGGCAACCGAATGATTCTCG", 1.09),
    ("AGACCAAGGTGATCGTGAGGTCGTTGATACTAAC", 2.79),
    ("TCTGCTAGGTCAACGATGGTCAGCTGATCTGCTA", 1.58),
    ("TCTCGGAGGACGCGAAAGGTCAGAGCTCGACATC", 3.7),
    ("GTACCAAGGTGAATAGGTCGTTGGTGAGTAGGCG", 0.626),
]
